Tested on: Trypanosoma brucei brucei GUTat3.1
Test: Antitrypanosomal Cell-TiterGlo assay, T.b. brucei
Type: cell-based
Details: Trypanosoma brucei, 72 h, read-out: Antitrypomastigote activity IC50 ± SD
MEASURED_PARAMETER: pIC50
As a rule, pIC50 stands for the negative log10 of the concentration, concentration in M.

Query string: Quick one: pIC50 of "Cc1ccc(C(=O)Nc2ccc(S(=O)(=O)O)c3cc(S(=O)(=O)O)cc(S(=O)(=O)O)c23)cc1NC(=O)c1cccc(NC(=O)Nc2cccc(C(=O)Nc3cc(C(=O)Nc4ccc(S(=O)(=O)O)c5cc(S(=O)(=O)O)cc(S(=O)(=O)O)c45)ccc3C)c2)c1" ?
Result string: 7.15
